The origin of these recorded values is ChEMBL document CHEMBL1137892.

Reported values of Potentiation for individual entries
molecular target: Metabotropic glutamate receptor 2 (Homo sapiens) (UniProt Q14416); experiment: Level of potentiation of Metabotropic glutamate receptor 2 was determined by measuring the percentage activation of [35S]GTP-gamma-S, in the presence of 10 uM glutamate; type: functional
Sequence (Q14416 19-872 limits assumed): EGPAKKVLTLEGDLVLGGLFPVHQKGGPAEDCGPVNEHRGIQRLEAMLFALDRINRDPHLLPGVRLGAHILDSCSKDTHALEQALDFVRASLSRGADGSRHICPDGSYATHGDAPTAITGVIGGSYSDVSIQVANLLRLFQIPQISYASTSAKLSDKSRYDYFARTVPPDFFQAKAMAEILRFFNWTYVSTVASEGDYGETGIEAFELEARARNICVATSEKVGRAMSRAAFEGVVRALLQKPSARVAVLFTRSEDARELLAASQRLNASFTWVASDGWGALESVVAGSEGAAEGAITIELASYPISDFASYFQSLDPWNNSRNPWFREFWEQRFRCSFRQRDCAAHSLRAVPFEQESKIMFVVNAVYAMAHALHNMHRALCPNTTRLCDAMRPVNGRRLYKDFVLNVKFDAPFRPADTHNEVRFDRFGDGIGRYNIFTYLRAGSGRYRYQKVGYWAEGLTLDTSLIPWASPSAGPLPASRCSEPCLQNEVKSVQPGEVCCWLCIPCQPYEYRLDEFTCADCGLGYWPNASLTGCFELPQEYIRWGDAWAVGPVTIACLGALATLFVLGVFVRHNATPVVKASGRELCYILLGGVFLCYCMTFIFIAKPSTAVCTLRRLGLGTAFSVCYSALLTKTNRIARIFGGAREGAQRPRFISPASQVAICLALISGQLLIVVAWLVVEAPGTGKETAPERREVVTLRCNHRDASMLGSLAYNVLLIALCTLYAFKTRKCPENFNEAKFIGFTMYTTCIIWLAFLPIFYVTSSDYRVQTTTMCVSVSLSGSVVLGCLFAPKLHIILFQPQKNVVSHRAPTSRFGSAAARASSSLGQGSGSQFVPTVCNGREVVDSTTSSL
Report the value in % with no unit label.

> print(dat)
                                   compound                          target.or.system  measurement.label  numeric.value
1  COc1ccccc1Oc1ccc(N(Cc2cccnc2)S(=O)(=O)CC(F)(F)F)cc1  Metabotropic glutamate receptor 2 (Homo sapiens) (UniProt Q14416)       Potentiation             52
2                      c1ccc(NCc2cncnc2)cc1  Metabotropic glutamate receptor 2 (Homo sapiens) (UniProt Q14416)       Potentiation             68
3  CCCC(C)Oc1cccc(N(Cc2cncnc2)S(=O)(=O)CC(F)(F)F)c1 (stereo not given)  Metabotropic glutamate receptor 2 (Homo sapiens) (UniProt Q14416)       Potentiation             31
4  O=S(=O)(CC(F)(F)F)N(Cc1cncnc1)c1cccc(Oc2ccccc2F)c1  Metabotropic glutamate receptor 2 (Homo sapiens) (UniProt Q14416)       Potentiation             46

Kindly indicate its recorded Potentiation. Item: `O=C(OCc1cccc(N(Cc2cncnc2)S(=O)(=O)CC(F)(F)F)c1)c1ccccc1`
39

Kindly indicate its recorded Potentiation. Item: `O=S(=O)(CC(F)(F)F)N(Cc1cncnc1)c1cccc(Oc2ccccc2Br)c1`
40

Kindly indicate its recorded Potentiation. Item: `O=S(=O)(CC(F)(F)F)N(Cc1cncnc1)c1cccc(COc2ccccc2)c1`
51

Kindly indicate its recorded Potentiation. Item: `Cc1ccccc1Oc1cccc(N(Cc2cncnc2)S(=O)(=O)CC(F)(F)F)c1`
53

Kindly indicate its recorded Potentiation. Item: CCCC(C)Oc1cccc(NCc2cnc3ccccc3c2)c1 (stereo not given)
41

Kindly indicate its recorded Potentiation. Item: `FC(F)(F)c1ccccc1Cc1cccc(NCc2cnc3ccccc3c2)c1`
18
